# assay method text: xn = mol fraction of the nth substance listed, in the solute-free solvent
# measurement context: 303.15 K; x2 = 0.03225
measured quantity: solubility (g/100 g solution)

>>> df
                                   compound  numeric_result
0   c1ccc2[nH]c(-c3cscn3)nc2c1 + CC(C)O + O          0.0044
1  CN1CCN(C2=Nc3cc(Cl)ccc3Nc3ccccc32)CC1 + CC(C)O + O          0.0233
2     c1ccc2[nH]c(-c3cscn3)nc2c1 + CCCO + O         0.00789
3  Nc1cccc(S(=O)(=O)c2cccc(N)c2)c1 + CC(C)O + O           0.188
4  Cc1[nH]c(=O)c(C#N)cc1-c1ccncc1 + CC(C)O + O         0.00231
5                  Nc1nccnc1Cl + CC(C)O + O           0.133

* * *

# assay method text: xn = mol fraction of the nth substance listed, in the solute-free solvent
# measurement context: 313.15 K; x2 = 0.1
Listed next: entries and their corresponding solubility (g/100 g solution).
measured quantity: solubility (g/100 g solution)

>>> print(df.to_string())
                                   molecule  numeric_result
0  CC(N)C(=O)O (stereo not given) + O + CCO          0.0998
1  CC(N)C(=O)O (stereo not given) + O + CC(C)O          0.0427
2  CC(N)C(=O)O (stereo not given) + O + CC(C)=O          0.0547
3   CC(N)C(=O)O (stereo not given) + O + CO           0.178
4                   S=c1[nH]ncs1 + CCCO + O             8.6
5                S=c1[nH]ncs1 + CC(C)=O + O            9.31
6                    S=c1[nH]ncs1 + CCO + O            5.01
7  Cc1ncc(C[n+]2csc(CCO)c2C)c(N)n1.O=[N+]([O-])[O-] + O + CO           0.812
8                     S=c1[nH]ncs1 + CO + O            3.35
9  CC(N)C(=O)O (stereo not given) + O + CCCO          0.0649

* * *

# assay method text: xn = mol fraction of the nth substance listed, in the solute-free solvent
# measurement context: 313.15 K; x2 = 0.2068
measured quantity: solubility (g/100 g solution)

In [3]: df
Out[3]:
                                   compound  numeric_result
0  Cc1[nH]c(=O)c(C#N)cc1-c1ccncc1 + CCO + O         0.00447
1  COc1cc2c(cc1OC)-c1cc3ccc(OC)c(OC)c3c[n+]1CC2.[Cl-] + CCO + O            4.73
2  Nc1cccc(S(=O)(=O)c2cccc(N)c2)c1 + CCO + O            1.25
3  CC(C)OC(=O)C(C)NP(=O)(OCC1OC(n2ccc(=O)[nH]c2=O)C(C)(F)C1O)Oc1ccccc1 (centres undefined) + CCO + O            25.1

* * *

# assay method text: xn = mol fraction of the nth substance listed, in the solute-free solvent
# measurement context: 303.15 K; x2 = 0.7788
Listed next: entries and their corresponding solubility (g/100 g solution).
measured quantity: solubility (g/100 g solution)

In [3]: df
Out[3]:
                                   compound              measured_quantity   result
0  Nc1cccc(S(=O)(=O)c2cccc(N)c2)c1 + CCO + O  solubility (g/100 g solution)     2.08
1  CC(C)OC(=O)C(C)NP(=O)(OCC1OC(n2ccc(=O)[nH]c2=O)C(C)(F)C1O)Oc1ccccc1 (centres undefined) + CCO + O  solubility (g/100 g solution)     37.8
2  Cc1[nH]c(=O)c(C#N)cc1-c1ccncc1 + CCO + O  solubility (g/100 g solution)  0.00928
3  COc1cc2c(cc1OC)-c1cc3ccc(OC)c(OC)c3c[n+]1CC2.[Cl-] + CCO + O  solubility (g/100 g solution)     4.53

* * *

# assay method text: xn = mol fraction of the nth substance listed, in the solute-free solvent
# measurement context: 303.15 K; x2 = 0.2812
measured quantity: solubility (g/100 g solution)

                                   compound              measured_quantity   result
0  COc1cc2c(cc1OC)-c1cc3ccc(OC)c(OC)c3c[n+]1CC2.[Cl-] + CCO + O  solubility (g/100 g solution)     3.58
1  CC(C)OC(=O)C(C)NP(=O)(OCC1OC(n2ccc(=O)[nH]c2=O)C(C)(F)C1O)Oc1ccccc1 (centres undefined) + CCO + O  solubility (g/100 g solution)     21.6
2  Nc1cccc(S(=O)(=O)c2cccc(N)c2)c1 + CCO + O  solubility (g/100 g solution)     1.07
3  Cc1[nH]c(=O)c(C#N)cc1-c1ccncc1 + CCO + O  solubility (g/100 g solution)  0.00453

* * *

# assay method text: xn = mol fraction of the nth substance listed, in the solute-free solvent
# measurement context: 298.15 K; x2 = 0.7788
Listed next: entries and their corresponding solubility (g/100 g solution).
measured quantity: solubility (g/100 g solution)

>>> print(df.to_string())
                                   molecule  numeric_result
0  COc1cc2c(cc1OC)-c1cc3ccc(OC)c(OC)c3c[n+]1CC2.[Cl-] + CCO + O            3.79
1  CC(C)OC(=O)C(C)NP(=O)(OCC1OC(n2ccc(=O)[nH]c2=O)C(C)(F)C1O)Oc1ccccc1 (centres undefined) + CCO + O            33.3
2  Nc1cccc(S(=O)(=O)c2cccc(N)c2)c1 + CCO + O            1.79
3  Cc1[nH]c(=O)c(C#N)cc1-c1ccncc1 + CCO + O         0.00817

* * *

# assay method text: xn = mol fraction of the nth substance listed, in the solute-free solvent
# measurement context: 298.15 K; x2 = 0.1436
measured quantity: solubility (g/100 g solution)

>>> print(df.to_string())
                                   compound  numeric_result
0  CC(C)OC(=O)C(C)NP(=O)(OCC1OC(n2ccc(=O)[nH]c2=O)C(C)(F)C1O)Oc1ccccc1 (centres undefined) + CCO + O            9.72
1  Nc1cccc(S(=O)(=O)c2cccc(N)c2)c1 + CCO + O           0.462
2  Cc1[nH]c(=O)c(C#N)cc1-c1ccncc1 + CCO + O         0.00225
3  COc1cc2c(cc1OC)-c1cc3ccc(OC)c(OC)c3c[n+]1CC2.[Cl-] + CCO + O            2.52

* * *

Listed next: entries and their corresponding solubility (g/100 g solution).
# assay method text: xn = mol fraction of the nth substance listed, in the solute-free solvent
# measurement context: 303.15 K; x2 = 0.1436
measured quantity: solubility (g/100 g solution)

In [3]: df
Out[3]:
                                   compound              measured_quantity  numeric_result
0  Nc1cccc(S(=O)(=O)c2cccc(N)c2)c1 + CCO + O  solubility (g/100 g solution)           0.591
1  CC(C)OC(=O)C(C)NP(=O)(OCC1OC(n2ccc(=O)[nH]c2=O)C(C)(F)C1O)Oc1ccccc1 (centres undefined) + CCO + O  solubility (g/100 g solution)            12.1
2  Cc1[nH]c(=O)c(C#N)cc1-c1ccncc1 + CCO + O  solubility (g/100 g solution)         0.00258
3  COc1cc2c(cc1OC)-c1cc3ccc(OC)c(OC)c3c[n+]1CC2.[Cl-] + CCO + O  solubility (g/100 g solution)            3.14

* * *

# assay method text: xn = mol fraction of the nth substance listed, in the solute-free solvent
# measurement context: 303.15 K; x2 = 0.5
measured quantity: solubility (g/100 g solution)

>>> df
                                   compound  numeric_result
0  CCCCCOC(=O)Nc1nc(=O)n(C2OC(C)C(O)C2O)cc1F (stereo not given) + CCOC(C)=O + CCCCCCC           0.274
1  CC(N)C(=O)O (stereo not given) + O + CCO           0.454
2  OCCN(CCO)c1nc(N2CCCCC2)c2nc(N(CCO)CCO)nc(N3CCCCC3)c2n1 + CCO + O            8.44
3  Cc1ncc(C[n+]2csc(CCO)c2C)c(N)n1.O=[N+]([O-])[O-] + O + CC(C)O           0.573
4  CC(N)C(=O)O (stereo not given) + O + CCCO           0.439
5  Cc1ncc(C[n+]2csc(CCO)c2C)c(N)n1.O=[N+]([O-])[O-] + O + CC(C)=O           0.733
6  OCCN(CCO)c1nc(N2CCCCC2)c2nc(N(CCO)CCO)nc(N3CCCCC3)c2n1 + CC(C)O + O            14.9
7                     S=c1[nH]ncs1 + CO + O            11.5
8                   S=c1[nH]ncs1 + CCCO + O            15.7
9  Cc1ncc(C[n+]2csc(CCO)c2C)c(N)n1.O=[N+]([O-])[O-] + O + CO            2.18
